Source: patent US9296723B2

Target: NAMPT (Homo sapiens, UniProt P43490)
Sequence (P43490 whole entry): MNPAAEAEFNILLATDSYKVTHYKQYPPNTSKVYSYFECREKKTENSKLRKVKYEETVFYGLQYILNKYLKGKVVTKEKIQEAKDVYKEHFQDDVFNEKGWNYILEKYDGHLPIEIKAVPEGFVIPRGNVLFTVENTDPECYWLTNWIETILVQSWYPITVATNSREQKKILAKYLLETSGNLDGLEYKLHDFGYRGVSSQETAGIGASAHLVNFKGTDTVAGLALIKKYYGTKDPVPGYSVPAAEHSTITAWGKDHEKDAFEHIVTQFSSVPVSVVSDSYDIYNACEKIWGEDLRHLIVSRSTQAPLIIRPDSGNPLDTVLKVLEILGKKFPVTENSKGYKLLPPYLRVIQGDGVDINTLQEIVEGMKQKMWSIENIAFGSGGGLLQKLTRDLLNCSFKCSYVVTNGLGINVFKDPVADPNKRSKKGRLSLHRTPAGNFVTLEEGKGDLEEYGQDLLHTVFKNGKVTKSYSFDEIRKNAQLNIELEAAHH
Assay: Time-Resolved Fluorescence Resonance Energy Transfer (TR-FRET) Binding Assay of NAMPT
Details: 6.8 nM NAMPT, 200 nM probe, equilibrated 3 hours, no substrates
Experimental: Determination of the utility of compounds having Formula (I) as binders to and inhibitors of NAMPT was performed using Time-Resolved Fluorescence Resonance Energy Transfer (TR-FRET) binding assays. Time-Resolved Fluorescence Resonance Energy Transfer (TR-FRET) Binding Assay of NAMPT Six L were transferred to 384-well low-volume plates ([…] #3673). To this, 12 L of a 1.5× solution containing enzyme, probe and antibody were added. […]
Rule for this label: Yes means IC50 is less than 100 nM; No means IC50 is at least 100 nM.

Consider the worked cases shown below.
[[record]]
molecule = "CC1(C(=O)N2CC(c3ccc(NC(=O)N4CC(c5cccnc5)C4)cc3)C2)CC1"
label = "Yes"

[[record]]
molecule = "O=C(Nc1ccc(C2CCN(C(=O)C3CCCCC3)CC2)cc1)N1CC(c2cccnc2)C1"
label = "Yes"

[[record]]
molecule = "O=C(Nc1ccc(C2CN(CC3CCOC3)C2)cc1)N1CC(c2cccnc2)C1 (centres unmarked)"
label = "No"


Check if IC50 falls below 100 nM for O=C(Nc1ccc(O[C@@H]2CCN(C(=O)c3nccs3)C2)cc1)N1CC(c2cccnc2)C1 . Yes

For CN1CCN(CC(=O)N2CC[C@@H](Oc3ccc(NC(=O)N4CC(c5cccnc5)C4)cc3)C2)CC1 then? No

Next record, please: O=C(Nc1ccc(O[C@@H]2CCN(C(=O)[C@@H]3CCCO3)C2)cc1)N1CC(c2cccnc2)C1 No

What do you have for O=C(Nc1ccc(O[C@@H]2CCN(C(=O)C3CCCCC3)C2)cc1)N1CC(c2cccnc2)C1 ? Yes

Here is the next molecule: O=C(CC1CC1)N1CC=C(c2ccc(NC(=O)N3CC(c4cccnc4)C3)cc2)CC1 Yes

====

target: NAMPT (Homo sapiens); test: TR-FRET Binding Assay of NAMPT with PRPP; conditions: 2 nM NAMPT, 2 nM probe, 200 µM PRPP and 2.5 mM ATP, equilibrated 16 hours
Listed here are molecules together with their documented pIC50.
Lab note — pIC50 values are minus log10 of concentrations in M.

Use these answered entries as a reference point.
[[record]]
molecule = "O=C(CC1CC1)N1CC(c2ccc(NC(=O)N3CC(c4cccnc4)C3)cc2)C1 [Example 105]"
experimental_system = "NAMPT (Homo sapiens)"
endpoint_name = "pIC50"
reported_result = 9.68

[[record]]
molecule = "COCCOCC(=O)N1CC(Oc2ccc(NC(=O)N3CC(c4cccnc4)C3)cc2)C1 [Example 118]"
experimental_system = "NAMPT (Homo sapiens)"
endpoint_name = "pIC50"
reported_result = 9.49

[[record]]
molecule = "CC(C)(C)CC(=O)N1CC(c2ccc(NC(=O)N3CC(c4cccnc4)C3)cc2)C1 [Example 205]"
experimental_system = "NAMPT (Homo sapiens)"
endpoint_name = "pIC50"
reported_result = 9.62

[[record]]
molecule = "O=C(CN1CCOCC1)N1CC[C@@H](Oc2ccc(NC(=O)N3CC(c4cccnc4)C3)cc2)C1 [Example 302]"
experimental_system = "NAMPT (Homo sapiens)"
endpoint_name = "pIC50"
reported_result = 9.41

[[record]]
molecule = "CSCC(=O)N1CC=C(c2ccc(NC(=O)N3CC(c4cccnc4)C3)cc2)CC1 [Example 21]"
experimental_system = "NAMPT (Homo sapiens)"
endpoint_name = "pIC50"
reported_result = 9.42


Now turn to the next molecule.
Endpoint output: pIC50 of CC(C)CCC(=O)N1CCC(Oc2ccc(NC(=O)N3CC(c4cccnc4)C3)cc2)CC1 [Example 42] . Value? 9.57

====

biological target: NAMPT (Homo sapiens, UniProt P43490); assay: TR-FRET Binding Assay of NAMPT with PRPP; details: 2 nM NAMPT, 2 nM probe, 200 µM PRPP and 2.5 mM ATP, equilibrated 16 hours
Threshold 0.4 nM. IC50 below it: 1. IC50 at it or above: -1.

Example entries begin here.
[[record]]
molecule = "COCC(=O)N1CC=C(c2ccc(NC(=O)N3CC(c4cccnc4)C3)cc2)CC1"
experimental_system = "NAMPT (Homo sapiens, UniProt P43490)"
label = -1

[[record]]
molecule = "CC1(C(=O)N2CCC(c3ccc(NC(=O)N4CC(c5cccnc5)C4)cc3)C2)CCCCC1 (centres unmarked)"
experimental_system = "NAMPT (Homo sapiens, UniProt P43490)"
label = 1

[[record]]
molecule = "COCC(=O)N1CC(Oc2ccc(NC(=O)N3CC(c4cccnc4)C3)cc2)C1"
experimental_system = "NAMPT (Homo sapiens, UniProt P43490)"
label = -1


Does CC(C)(C)OC(=O)N1CCC(c2ccc(NC(=O)N3CC(c4cnccc4Cl)C3)cc2)CC1 have IC50 strictly under 0.4 nM? -1

And for CCOCC(=O)N1CC(c2ccc(NC(=O)N3CC(c4cccnc4)C3)cc2)C1 ? 1

Again, but for CC(=O)N1CC(c2ccc(NC(=O)N3CC(c4cccnc4)C3)cc2)C1 1

CC(C)(C)CC(=O)N1CC=C(c2ccc(NC(=O)N3CC(c4cccnc4)C3)cc2)CC1 ? -1

Record: O=C(Nc1ccc(C2CN(C(=O)C3CCCC3)C2)cc1)N1CC(c2cccnc2)C1 1

====

molecular target: UniProt P43490; assay: Time-Resolved Fluorescence Resonance Energy Transfer (TR-FRET) Binding Assay of NAMPT; conditions: 6.8 nM NAMPT, 200 nM probe, equilibrated 3 hours, no substrates
Endpoint name: IC50 (nM)
Report the figure in nM without appending any unit label.

A selection of reference data follows.
[[record]]
compound = "O=C(CN1CCOCC1)N1CCC(c2ccc(NC(=O)N3CC(c4cccnc4)C3)cc2)CC1"
reported_result = 39.3

[[record]]
compound = "CCOCC(=O)N1CC(Oc2ccc(NC(=O)N3CC(c4cccnc4)C3)cc2)C1"
reported_result = 117

[[record]]
compound = "O=C(CC1C[C@@H]2CC[C@H]1C2)N1CCC(c2ccc(NC(=O)N3CC(c4cccnc4)C3)cc2)CC1 (stereo partly shown)"
reported_result = 14.4


# input compound: O=C(CC(F)(F)F)N1CC(Oc2ccc(NC(=O)N3CC(c4cccnc4)C3)cc2)C1 ; wanted: its IC50 54.2

Next: CC(C)(C)CCN1CCC(c2ccc(NC(=O)N3CC(c4cccnc4)C3)cc2)CC1 653

And CC[C@H](C)C(=O)N1CCC(Oc2ccc(NC(=O)N3CC(c4cccnc4)C3)cc2)CC1 ? 19.7

Entry O=C(CCC(F)(F)F)N1CCC(c2ccc(NC(=O)N3CC(c4cccnc4)C3)cc2)CC1 please 32.5

Param item: CC1(C(=O)N2CC(Oc3ccc(NC(=O)N4CC(c5cccnc5)C4)cc3)C2)CCCCC1 5.18

====

biological target: NAMPT (Homo sapiens, UniProt P43490); test: TR-FRET Binding Assay of NAMPT with PRPP; conditions: 2 nM NAMPT, 2 nM probe, 200 µM PRPP and 2.5 mM ATP, equilibrated 16 hours
Endpoint name: pIC50
Please express pIC50 as -log10 of the molar concentration.

Sample records with pIC50:
[[record]]
compound = "O=C(CC1CCOCC1)N1CCC(Oc2ccc(NC(=O)N3CC(c4cncc(F)c4)C3)cc2)CC1 [Example 3]"
reported_result = 8.12

[[record]]
compound = "Cc1ccsc1C(=O)N1CC(c2ccc(NC(=O)N3CC(c4cccnc4)C3)cc2)C1 [Example 220]"
reported_result = 9.47

[[record]]
compound = "CC(C)(O)C(=O)N1CC=C(c2ccc(NC(=O)N3CC(c4cccnc4)C3)cc2)CC1 [Example 12]"
reported_result = 9.37


Look up pIC50: O=C(Nc1ccc(C2CCN(C(=O)c3nccs3)CC2)cc1)N1CC(c2cccnc2)C1 [Example 195] 9.55

Also CCC(C)(C)CN1CCC(c2ccc(NC(=O)N3CC(c4cccnc4)C3)cc2)CC1 [Example 244] , if possible. 9.29

Let us now turn to CC(=O)N[C@@H](CC(C)C)C(=O)N1CC[C@@H](Oc2ccc(NC(=O)N3CC(c4cccnc4)C3)cc2)C1 [Example 318] 9.38

O=C(CCN1CCOCC1)N1CC[C@@H](Oc2ccc(NC(=O)N3CC(c4cccnc4)C3)cc2)C1 [Example 321] , same question. 9.61

Quick one: O=C(CC1CCCC1)N1CCC(c2ccc(NC(=O)N3CC(c4cccnc4)C3)cc2)C1 (stereo not shown) [Example 261] 9.71

====

target: UniProtKB P43490; test: Time-Resolved Fluorescence Resonance Energy Transfer (TR-FRET) Binding Assay of NAMPT; conditions: 6.8 nM NAMPT, 200 nM probe, equilibrated 3 hours, no substrates
Endpoint name: log10 IC50 (log10 of the value in nM)
Recall that a logarithmic scale is used here: each number is log10 of IC50 in nM.

As a guide, the following entries are already answered.
[[record]]
cpd_smiles = "CC(C)(O)C(=O)N1CC=C(c2ccc(NC(=O)N3CC(c4cccnc4)C3)cc2)CC1"
experimental_system = "UniProtKB P43490"
reported_result = 1.51

[[record]]
cpd_smiles = "O=C(CC1CCCCC1)N1CC(Oc2ccc(NC(=O)N3CC(c4cccnc4)C3)cc2)C1"
experimental_system = "UniProtKB P43490"
reported_result = 1.06

[[record]]
cpd_smiles = "CCCCC(=O)N1CC(c2ccc(NC(=O)N3CC(c4cccnc4)C3)cc2)C1"
experimental_system = "UniProtKB P43490"
reported_result = 1.81

[[record]]
cpd_smiles = "O=C(Nc1ccc(O[C@@H]2CCN(C(=O)C3CC3)C2)cc1)N1CC(c2cccnc2)C1"
experimental_system = "UniProtKB P43490"
reported_result = 2.07

[[record]]
cpd_smiles = "CC(C)(O)C(=O)N1CC(Oc2ccc(NC(=O)N3CC(c4cccnc4)C3)cc2)C1"
experimental_system = "UniProtKB P43490"
reported_result = 1.84

[[record]]
cpd_smiles = "O=C(Nc1ccc(OC2CN(C(=O)c3nccs3)C2)cc1)N1CC(c2cccnc2)C1"
experimental_system = "UniProtKB P43490"
reported_result = 1.38

[[record]]
cpd_smiles = "O=C(Nc1ccc(C2CCN(CC3CCCC3)CC2)cc1)N1CC(c2cccnc2)C1"
experimental_system = "UniProtKB P43490"
reported_result = 2.62


Then this compound:
Give UniProtKB P43490 log10 IC50 for O=C(Nc1ccc(O[C@H]2CCN(C(=O)[C@H]3CCCO3)C2)cc1)N1CC(c2cccnc2)C1 2.51
